assay: Stability of analytes in rat plasma QC samples under storage conditions; type: in vitro ADME; conditions: rat plasma, n=6; medium QC: spiked 200 ng/mL glycyrrhizic acid; 100 liquiritin; 20 emodin, gallic acid, ononin, schisandrin, stilbene glycoside; 10 isoliquiritigenin, liquiritigenin, rhein, verbascoside
assay_readout: Measured Concentration, three freeze-thaw cycles (ng/mL)
Answers are plain numbers, in ng/mL.

// worked examples, Measured Concentration, three freeze-thaw cycles included
O=C1C[C@@H](c2ccc(O)cc2)Oc2cc(O)ccc21 : 8.99
OC[C@H]1O[C@@H](Oc2c(O)cc(O)cc2/C=C/c2ccc(O)cc2)[C@H](O)[C@@H](O)[C@@H]1O [stilbene glycoside] : 19.87
COc1cc2c(c(OC)c1OC)-c1c(cc(OC)c(OC)c1OC)C[C@](C)(O)[C@@H](C)C2 : 18.28
O=C(O)c1cc(O)c(O)c(O)c1 : 20.08
O=C1C[C@@H](c2ccc(O[C@@H]3O[C@H](CO)[C@@H](O)[C@H](O)[C@H]3O)cc2)Oc2cc(O)ccc21 : 109.67

Provide each entry's Measured Concentration, three freeze-thaw cycles from the list below.
1. O=C(O)c1cc(O)c2c(c1)C(=O)c1cccc(O)c1C2=O
2. CC1(C)[C@@H](O[C@H]2O[C@H](C(=O)O)[C@@H](O)[C@H](O)[C@H]2O[C@@H]2O[C@H](C(=O)O)[C@@H](O)[C@H](O)[C@H]2O)CC[C@]2(C)[C@H]3C(=O)C=C4[C@@H]5C[C@@](C)(C(=O)O)CC[C@]5(C)CC[C@@]4(C)[C@]3(C)CC[C@@H]12

## Result
1: 8.89; 2: 188.63
